Measured On: somatostatin receptor type 2 (SSTR2) (UniProt P30874 1-369)
Sequence (P30874 whole entry): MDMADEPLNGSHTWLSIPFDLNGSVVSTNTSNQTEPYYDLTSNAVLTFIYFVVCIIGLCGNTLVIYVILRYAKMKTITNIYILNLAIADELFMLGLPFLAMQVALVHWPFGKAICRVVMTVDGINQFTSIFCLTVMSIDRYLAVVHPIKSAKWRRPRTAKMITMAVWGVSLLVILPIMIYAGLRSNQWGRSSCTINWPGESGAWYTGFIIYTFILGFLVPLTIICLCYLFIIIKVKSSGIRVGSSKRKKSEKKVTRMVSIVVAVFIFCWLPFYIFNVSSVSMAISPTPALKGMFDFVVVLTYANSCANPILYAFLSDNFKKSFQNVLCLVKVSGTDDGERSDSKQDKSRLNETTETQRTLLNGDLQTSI
Assay Info: cell-based or functional assay
Starred links: 1 amine or outer side, 2 acyl side, 3 side chain; linkers in the order of their positions; H or OH if unused. Positions of bridges follow the written chain, without caps; N, C: chain ends. Non-standard residues stand in square brackets, D forms with d. dPhe(4-phenylureido) = D-4-(phenylureido)Phe, O=C(Nc1ccccc1)Nc1ccc(C[C@@H](N[*:1])C(=O)[*:2])cc1; thiocarbamate = -NH-(C=O)-S- bridge between side chains (disulfide isostere); Tyr(Me) = 4-OMe-Phe, COc1ccc(C[C@H](N[*:1])C(=O)[*:2])cc1; dPhe(4-CONH2) = NC(=O)c1ccc(C[C@@H](N)C(=O)O)cc1; Phe(4-Cl) = N[C@@H](Cc1ccc(Cl)cc1)C(=O)O; dNMeY = CN[C@H](Cc1ccc(O)cc1)C(=O)O; dDap = NC[C@@H](N)C(=O)O; Dap = NC[C@H](N)C(=O)O
Measured IC50 (PathHunter β-Arrestin, antagonist mode) of individual entries

// worked examples, IC50 (PathHunter β-Arrestin, antagonist mode) included
Binder	Reported Value
XXXXKXCX (HELM PEPTIDE1{[N[C@@H](Cc1ccc(Cl)cc1)C(=O)[*:2]].[dC].[meY].[NC(=O)c1ccc(C[C@@H](N[*:1])C(=O)[*:2])cc1].K.[meT].C.[dY].[am]}$PEPTIDE1,PEPTIDE1,2:R3-7:R3$$$V2.0; SMILES C[C@@H](O)[C@H]1C(=O)N[C@H](C(=O)N[C@H](Cc2ccc(O)cc2)C(N)=O)CSSC[C@@H](NC(=O)[C@@H](N)Cc2ccc(Cl)cc2)C(=O)N(C)[C@@H](Cc2ccc(O)cc2)C(=O)N[C@H](Cc2ccc(C(N)=O)cc2)C(=O)N[C@@H](CCCCN)C(=O)N1C) [Compound 75: H-Cpa-[DCys-NMeTyr-DPhe(4-carbamoyl)-Lys-NMeThr-Cys]-DTyr-NH2]	> 1000 nM
XXYXKTCX (HELM PEPTIDE1{[N[C@@H](Cc1ccc(Cl)cc1)C(=O)[*:2]].[dC].Y.[O=C([C@@H](Cc1ccc(N[*:3])cc1)N[*:1])[*:2]].K.T.C.[dY].[am]}|PEPTIDE2{[ac].G}$PEPTIDE1,PEPTIDE2,4:R3-2:R2|PEPTIDE1,PEPTIDE1,2:R3-7:R3$$$V2.0; SMILES CC(=O)NCC(=O)Nc1ccc(C[C@H]2NC(=O)[C@H](Cc3ccc(O)cc3)NC(=O)[C@H](NC(=O)[C@@H](N)Cc3ccc(Cl)cc3)CSSC[C@@H](C(=O)N[C@H](Cc3ccc(O)cc3)C(N)=O)NC(=O)[C@H]([C@@H](C)O)NC(=O)[C@H](CCCCN)NC2=O)cc1) [Compound 9: H-Cpa-cyclo[DCys-Tyr-D-4-(Gly-Ac)Aph-Lys-Thr-Cys]-DTyr-NH2]	104 nM
XXYXKTCX (HELM PEPTIDE1{[N[C@@H](Cc1ccc(Cl)cc1)C(=O)[*:2]].[dC].Y.[NC(=O)NCCC[C@@H](N[*:1])C(=O)[*:2]].K.T.C.[dY].[am]}$PEPTIDE1,PEPTIDE1,2:R3-7:R3$$$V2.0; SMILES C[C@@H](O)[C@@H]1NC(=O)[C@H](CCCCN)NC(=O)[C@@H](CCCNC(N)=O)NC(=O)[C@H](Cc2ccc(O)cc2)NC(=O)[C@H](NC(=O)[C@@H](N)Cc2ccc(Cl)cc2)CSSC[C@@H](C(=O)N[C@H](Cc2ccc(O)cc2)C(N)=O)NC1=O) [Compound 1: H-Cpa-cyclo[D-Cys-Tyr-D-Cit-Lys-Thr-Cys]-D-Tyr-NH2]	34 nM

// returns reported IC50 (PathHunter β-Arrestin, antagonist mode) for input H-[Phe(4-Cl)][dC]Y[dPhe(4-CONH2)]KT[Dap][dY]-NH2 (bridge 2-7 via thiocarbamate) [Compound 62: H-Cpa-cyclo[DCys-Tyr-DPhe(4-CONH2)-Lys-Thr-Dap]-DTyr-NH2] > 1000 nM

Please give the measured IC50 (PathHunter β-Arrestin, antagonist mode) for this binder: XXYXRTCX (HELM PEPTIDE1{[N[C@@H](Cc1ccc(Cl)cc1)C(=O)[*:2]].[dC].Y.[NC(=O)c1ccc(C[C@@H](N[*:1])C(=O)[*:2])cc1].R.T.C.[dY].[am]}$PEPTIDE1,PEPTIDE1,2:R3-7:R3$$$V2.0; SMILES C[C@@H](O)[C@@H]1NC(=O)[C@H](CCCNC(=N)N)NC(=O)[C@@H](Cc2ccc(C(N)=O)cc2)NC(=O)[C@H](Cc2ccc(O)cc2)NC(=O)[C@H](NC(=O)[C@@H](N)Cc2ccc(Cl)cc2)CSSC[C@@H](C(=O)N[C@H](Cc2ccc(O)cc2)C(N)=O)NC1=O) [Compound 29: H-Cpa-cyclo[DCys-Tyr-D-(4-carbamoyl)Phe-Arg-Thr-Cys]-DTyr-NH2] 398 nM

Item H-[Phe(4-Cl)][dC]Y[dPhe(4-CONH2)]KTC[dNMeY]-NH2 (disulfide 2-7; SMILES C[C@@H](O)[C@@H]1NC(=O)[C@H](CCCCN)NC(=O)[C@@H](Cc2ccc(C(N)=O)cc2)NC(=O)[C@H](Cc2ccc(O)cc2)NC(=O)[C@H](NC(=O)[C@@H](N)Cc2ccc(Cl)cc2)CSSC[C@@H](C(=O)N(C)[C@H](Cc2ccc(O)cc2)C(N)=O)NC1=O) [Compound 79: H-Cpa-[DCys-Tyr-DPhe(4-carbamoyl)-Lys-Thr-Cys]-NMeDTyr-NH2] has what recorded IC50 (PathHunter β-Arrestin, antagonist mode)? 28.7 nM

So what's the measured IC50 (PathHunter β-Arrestin, antagonist mode) for this one? H-[Phe(4-Cl)][dDap]Y[dPhe(4-phenylureido)]KTD[dY]-NH2 (lactam 2-7; not fully specified; printed as H-Cpa-cyclo[DDap-Tyr-Xaa4-Lys-Thr-Asp]-DTyr-NH2) [Compound 70: H-Cpa-cyclo[DDap-Tyr-Xaa4-Lys-Thr-Asp]-DTyr-NH2] > 1000 nM

Dear colleague, I am looking for the recorded IC50 (PathHunter β-Arrestin, antagonist mode) of the following binder: H-[Phe(4-Cl)][dC][Tyr(Me)][dPhe(4-CONH2)]KTC[dY]-NH2 (disulfide 2-7; SMILES COc1ccc(C[C@@H]2NC(=O)[C@H](NC(=O)[C@@H](N)Cc3ccc(Cl)cc3)CSSC[C@@H](C(=O)N[C@H](Cc3ccc(O)cc3)C(N)=O)NC(=O)[C@H]([C@@H](C)O)NC(=O)[C@H](CCCCN)NC(=O)[C@@H](Cc3ccc(C(N)=O)cc3)NC2=O)cc1) [Compound 38: H-Cpa-cyclo[DCys-4-OMe-Phe-D-(4-carbamoyl)Phe-Lys-Thr-Cys]-DTyr-NH2] 24.4 nM

Using the record for XXYXKTCX (HELM PEPTIDE1{[N[C@@H](Cc1ccc(Cl)cc1)C(=O)[*:2]].[dC].Y.[NC(=O)c1ccc(C[C@@H](N[*:1])C(=O)[*:2])cc1].K.T.C.[dF].[am]}$PEPTIDE1,PEPTIDE1,2:R3-7:R3$$$V2.0; SMILES C[C@@H](O)[C@@H]1NC(=O)[C@H](CCCCN)NC(=O)[C@@H](Cc2ccc(C(N)=O)cc2)NC(=O)[C@H](Cc2ccc(O)cc2)NC(=O)[C@H](NC(=O)[C@@H](N)Cc2ccc(Cl)cc2)CSSC[C@@H](C(=O)N[C@H](Cc2ccccc2)C(N)=O)NC1=O) [Compound 40: H-Cpa-cyclo[DCys-Tyr-D-(4-carbamoyl)Phe-Lys-Thr-Cys]-DPhe-NH2] , report its IC50 (PathHunter β-Arrestin, antagonist mode). 16.2 nM
